- System Under Test: T1, Human 20.2 peptide (human)
- T1 construct: synthetic peptide from the RB exon
- T1 peptide: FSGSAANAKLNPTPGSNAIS
- Protocol: recombinant antibody on peptide

Binder | binding result
AB-CD45RB-XG2-446 (antibody, human IgG2, V domains shown, recombinant human IgG2 kappa; also called sc446) VH: QVQLVESGGGVVQPGKSLRLSCAASGFTFRNYGMHWVRQAPGKGLEWVAVIWYDGSKKFYADSVKGRFTISRDNSKNTLNLQMNSLRAEDTAVYYCVRGGGDFDYWGQGTLVTVSS VL: EIVMTQSPATLSVSLGERATLSCRASQNISGNYLAWYQQRPGQAPRRLIYSASSRATGIPDRFSGSGSGTEFTLTISSLQSEDFAVYYCQQYNNWPPLTFGGGTKVEMK | no binding
AB-CD45RB-XG2-493 (antibody, human IgG2, V domains shown, recombinant human IgG2 kappa; also called sc493) VH: QVQLVESGGGVVQPGRSLRVSCAASGFTFSNYGMHWVRQAPGKGLEWVAVIWYDGSKKFYADSVKGRFTISRDNSQNTLSLQMSSLRAEDTAVYYCARGGGDFDFWGQGTLVTVSS VL: KIVMTQSPVTLSVSPGERATLSCRACQSVSGSYLAWYQQRPGQAPRLLIYGASTRATGIPARFSGSGSGTEFTLTISSLQSEDFAVYYCQQYGKWPPLTFGGGTKVEIK | no binding
AB-CD45RB-XG2-713 (antibody, human IgG2, V domains shown, recombinant human IgG2 kappa; also called sc713) VH: QVQLVESGGGVVQPGRSLRLSCAASGFTFSNYGMHWVRQAPGKGLEWVAVIWYDGSKKFYADSVKGRFTISRDNFEKTLYLQMNSLRAEDTAVYYCARGGGDFDYWGQGTLVTVSS VL: EIVMTQSPATLSVSPGERATLSCRASQSLSGSYLAWYQQKPGQAPRLLIYSASTRATGIPARFSGSGSGTEFTLTISSLQSEDFAVYYCQQYNNWPPLTFGGGTKVEIK | no binding
